Exercise: state measured IC50 for each of the compounds provided.
target: human VAP-1 enzyme (SSAO) (Homo sapiens (Human), UniProt Q16853)
Sequence (Q16853 whole entry): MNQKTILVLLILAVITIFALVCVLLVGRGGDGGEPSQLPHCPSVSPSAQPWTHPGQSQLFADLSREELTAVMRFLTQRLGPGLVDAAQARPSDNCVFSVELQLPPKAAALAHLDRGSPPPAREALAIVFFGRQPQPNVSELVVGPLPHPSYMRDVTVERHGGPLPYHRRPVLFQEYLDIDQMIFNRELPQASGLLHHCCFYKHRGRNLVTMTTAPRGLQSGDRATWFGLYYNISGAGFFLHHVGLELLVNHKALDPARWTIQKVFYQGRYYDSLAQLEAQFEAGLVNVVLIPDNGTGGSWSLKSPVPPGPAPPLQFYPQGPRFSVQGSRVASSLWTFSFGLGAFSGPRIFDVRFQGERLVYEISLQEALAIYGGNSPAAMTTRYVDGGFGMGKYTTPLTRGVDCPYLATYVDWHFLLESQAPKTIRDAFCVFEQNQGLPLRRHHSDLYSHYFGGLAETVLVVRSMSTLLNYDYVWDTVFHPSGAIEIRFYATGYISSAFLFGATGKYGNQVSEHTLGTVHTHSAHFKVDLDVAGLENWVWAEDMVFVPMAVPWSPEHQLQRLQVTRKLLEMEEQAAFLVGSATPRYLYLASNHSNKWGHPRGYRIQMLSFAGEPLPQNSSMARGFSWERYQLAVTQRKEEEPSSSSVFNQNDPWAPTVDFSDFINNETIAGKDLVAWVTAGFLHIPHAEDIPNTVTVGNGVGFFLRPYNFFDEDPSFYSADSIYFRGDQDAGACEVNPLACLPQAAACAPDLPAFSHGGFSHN
Answers are plain numbers, in µM.

                                smiles_text  assay_value
0  COCC(=O)N1CCC(C2CN(c3cccc(COC(=O)NC(=N)N)c3F)C2)CC1        0.014
1  CC(=O)Nc1nc(CCc2cccc(CNC(=O)NC(=N)N)c2)cs1.Cl        0.025
2  CC(=O)N1CCC(COc2ncc(-c3cccc(CNC(=O)NC(=N)N)c3F)cn2)CC1        0.014

Required: IC50, one value per compound below.
1. N=C(N)NC(=O)OCc1cccc(N2CCN(c3cnc(N4CC[C@@H](F)C4)nc3)CC2)c1F
2. CC(=O)N1CCC(OC2CCN(c3cccc(COC(=O)NC(=N)N)c3F)CC2)CC1

1: 0.029; 2: 0.025
